B1: YPEL3 (parent)
chain: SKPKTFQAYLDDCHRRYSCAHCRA

# Variants of: B1
# assay: protein stability index of a GFP-peptide fusion (GPS, HEK-293T) (PSI 1-6); higher = more stable;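 note: lentivirally expressed fusions sorted by FACS into six bins by GFP to DsRed ratio, PSI derived from sequencing read proportions per bin multiplied by bin number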
# assay_context: c terminus: a fixed tail appended
Entries and their measured protein stability index follow.

sequence_chain	protein stability index
SYPKTFQAYLDDCHRRYSCAHCRA	1.85
SKPKTFQAYLDDCHRRYSEAHCRA	3.18
SKPKTFQAYLDDCHRRYSCAHCRS	1.54
SKPKTFQAYLDDCHRRYSCYHCRA	2.16
SKPKTFQAYLDDCHRRYFCAHCRA	1.91
SKPKTFQAYLDDCHKRYSCAHCRA	2.15
SKPKTFQAYLDDCHSRYSCAHCRA	1.61
SKPKTFQAYLDDCHRRYSCAQCRA	2
SKPKTFQAYLDDCFRRYSCAHCRA	1.07
SKIKTFQAYLDDCHRRYSCAHCRA	2.19
SKPKTFQAYLDDCHRRYPCAHCRA	2.15
SKPKTFQAYDDDCHRRYSCAHCRA	2.53
SNPKTFQAYLDDCHRRYSCAHCRA	2.34
SIPKTFQAYLDDCHRRYSCAHCRA	1.63
SKPKTFQAELDDCHRRYSCAHCRA	3
SKPKTFQAYLDDCHRRYSCAHCGA	1.39
SKPKSFQAYLDDCHRRYSCAHCRA	1.77
SKPKTFQKYLDDCHRRYSCAHCRA	2.31
SKPLTFQAYLDDCHRRYSCAHCRA	2.42
SKPKTGQAYLDDCHRRYSCAHCRA	3.57
SKPKTFQAYLDDIHRRYSCAHCRA	1.94
SKPNTFQAYLDDCHRRYSCAHCRA	1.87
SKPKTFQAYLDDCHRRYSVAHCRA	2.41
SKPKTFQAYLDDCHRRYSCAHARA	2.04
SKPKTFQAYLDDCHRRYSCADCRA	2.18
SKGKTFQAYLDDCHRRYSCAHCRA	2.13
SKPKTFQAYLDDCHRRYSCAHCRV	1.84
SKPQTFQAYLDDCHRRYSCAHCRA	1.8
SKPKTFFAYLDDCHRRYSCAHCRA	3.06
SKPKTFQAYLDDCHRFYSCAHCRA	1.76
SKPKTFQAYLDDCHNRYSCAHCRA	2.79
SKPKTFQAYLDDHHRRYSCAHCRA	1.75
SKPKTFQAYLDDGHRRYSCAHCRA	2.07
SKPKTFQAYLDYCHRRYSCAHCRA	2.28
SKPPTFQAYLDDCHRRYSCAHCRA	1.9
SKPKTIQAYLDDCHRRYSCAHCRA	2.17
SKPKTFQAYLDDCHRRYSCAHYRA	2.17
SKPKTFQAYLDTCHRRYSCAHCRA	2.35
SKPYTFQAYLDDCHRRYSCAHCRA	2.04
SKPKTFQAYLDDCHRRYSCAHTRA	2.73
SKPKTFQQYLDDCHRRYSCAHCRA	2.5
SKPKTFQAYLDDCHRRYSCAHCRM	2.07
SKPKTFQAYLDDCHRDYSCAHCRA	2.45
SKPKTFQAYLDDCHRRYGCAHCRA	2.5
SKPKTFQAYLDDCHRRYDCAHCRA	1.5
SKPKTRQAYLDDCHRRYSCAHCRA	3.21
SKPKTFQAYHDDCHRRYSCAHCRA	3.32
SKPKTFQADLDDCHRRYSCAHCRA	2.38
SKPKTYQAYLDDCHRRYSCAHCRA	2.2
SKHKTFQAYLDDCHRRYSCAHCRA	1.54
SKPKTFQAYLDDCHRLYSCAHCRA	2.33
SKPKTFQAYLDDCHRRYECAHCRA	1.52
SKPKTFQAYLDDCHRRYSCAHCRC	1.83
SKPKTFQAYLDDCHMRYSCAHCRA	1.68
SKPKTFQAYLDDCHRRYSCAHCEA	2.09
SKPKTFQAYLDDCHRRYSCAHCRT	1.54
SKPKTFQAYLDDCHRRYSCAHVRA	2.64
SKPKTFQWYLDDCHRRYSCAHCRA	2.09
SKPKTFQAYLDDCHRRYSCAHCRY	2.86
SKPKTFQAYLDDCCRRYSCAHCRA	2.28
SKPKTFQAYLDDCHRRYSLAHCRA	2.08
SKPKTFQAYLDDCHRRLSCAHCRA	2
SKPKTFQAYLDDCHRRKSCAHCRA	3.43
SKPKTFQAYIDDCHRRYSCAHCRA	2.41
SKPKTFQAYLDDCHRRYSCAHCRN	2
SKPKFFQAYLDDCHRRYSCAHCRA	1.84
SKPKTFDAYLDDCHRRYSCAHCRA	2.68
SKPKTFQAYLDDCHRRYSCAHNRA	2.45
SKPKTFQAYLDDCHRRYSKAHCRA	2.64
SKPKTFQAYLDDCHRRYSCATCRA	2.34

FYI, the data here is from the supplement of paper PMC10567573.
